Reported Kd by item:
- system_under_test: PZ (Homo sapiens)
- Construct: purchased Enzyme Research Laboratories (South Bend, IN, USA)
- Sequence (P22891 41-400): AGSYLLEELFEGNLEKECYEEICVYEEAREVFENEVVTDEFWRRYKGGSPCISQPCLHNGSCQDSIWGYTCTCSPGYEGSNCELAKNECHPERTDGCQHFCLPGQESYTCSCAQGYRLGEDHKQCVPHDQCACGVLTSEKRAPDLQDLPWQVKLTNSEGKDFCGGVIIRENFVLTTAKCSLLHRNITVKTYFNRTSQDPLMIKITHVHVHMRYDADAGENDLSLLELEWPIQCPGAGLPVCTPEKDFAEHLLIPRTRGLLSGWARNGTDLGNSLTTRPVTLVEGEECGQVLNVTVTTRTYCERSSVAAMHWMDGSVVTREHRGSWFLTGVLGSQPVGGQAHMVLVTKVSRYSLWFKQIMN
- assay_protocol: Binding of soluble lipids to PZ by intrinsic tryptophan fluorescence
- conditions_used: 1 mM Ca2+; read-out: binding Kd to PZ in presence of 1 mM Ca2+

Ask | Tell us which Kd value is on record for CCCCCC(=O)OC[C@H](COP(=O)(O)OCCN)OC(=O)CCCCC [C6PE]
Reply | 172 µM

Ask | Kindly indicate its recorded Kd. Item: CCCCCC(=O)OC[C@H](COP(=O)(O)OC[C@H](N)C(=O)O)OC(=O)CCCCC [C6PS]
Reply | 165 µM

====

- system_under_test: PZ (Homo sapiens)
- Construct: purchased Enzyme Research Laboratories (South Bend, IN, USA)
- assay_protocol: Binding of soluble lipids to PZ by intrinsic tryptophan fluorescence
- conditions_used: 150 nM PZ, 5 mM CaCl2, pH 7.5, 25° C, no pre-incubation lipid, single-site binding model; read-out: apparent Kd for binding to PZ
// returns No unless Kd is strictly below 100 µM, in which case Yes

CCCCCC(=O)OC[C@H](COP(=O)(O)OCC(O)CO)OC(=O)CCCCC (stereo partly drawn) [C6PG]
No
CCCCCC(=O)OC[C@H](COP(=O)(O)OC[C@H](N)C(=O)O)OC(=O)CCCCC [C6PS]
Yes
CCCCCC(=O)OC[C@H](COP(=O)(O)OC[C@@H](N)C(=O)O)OC(=O)CCCCC [C6(D)PS]
No
CCCCCC(=O)OC[C@H](COP(=O)(O)OCCN)OC(=O)CCCCC [C6PE]
Yes
CCCCCC(=O)OC[C@H](COP(=O)([O-])OCC[N+](C)(C)C)OC(=O)CCCCC [C6PC]
No

--- query ---
Ask | Criterion: Kd strictly below 100 µM. Is it met by CCCCCC(=O)OC[C@H](COP(=O)(O)O)OC(=O)CCCCC [C6PA] ?
Reply | No
